- tested-target: T1, human PILRA G78 on cells (human, UniProt Q9UKJ1 20-303)
- T1 construct: wild-type iMicroglia are R78/G78 heterozygous (said in the assay field); also called hPILRA; hPILRA G78
- T1 sequence (Q9UKJ1 20-303 R78G limits assumed): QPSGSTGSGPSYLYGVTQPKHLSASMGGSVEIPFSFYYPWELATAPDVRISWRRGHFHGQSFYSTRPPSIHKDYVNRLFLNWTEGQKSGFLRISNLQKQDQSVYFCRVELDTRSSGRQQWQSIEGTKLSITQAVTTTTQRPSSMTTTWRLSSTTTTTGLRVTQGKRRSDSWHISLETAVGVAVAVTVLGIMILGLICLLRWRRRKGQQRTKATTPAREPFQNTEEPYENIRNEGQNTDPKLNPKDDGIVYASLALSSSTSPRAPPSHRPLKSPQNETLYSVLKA
- experiment: flow cytometry on HEK293 cells expressing hPILRA G78
Consider the following binders; for each one, report its EC50.
Entry rule: numbers only, all in nM.

stdin: Name the recorded EC50 of the binder listed here: Anti-PILRA antibody clone 7 (antibody, V domains shown) VH: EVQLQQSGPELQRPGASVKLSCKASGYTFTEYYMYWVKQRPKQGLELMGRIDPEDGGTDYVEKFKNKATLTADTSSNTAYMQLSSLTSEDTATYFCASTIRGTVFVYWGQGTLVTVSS VL: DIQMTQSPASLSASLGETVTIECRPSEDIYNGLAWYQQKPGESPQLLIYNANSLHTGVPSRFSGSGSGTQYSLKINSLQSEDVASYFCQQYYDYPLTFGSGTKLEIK
stdout: 13

stdin: Report EC50 for Anti-PILRA antibody clone 9 (antibody, V domains shown, also called Ab; Clone 9) VH: QVQLQESGPGLVKPSGTLSLTCAVSGGSISSNNWWSWVRQPPGKGLEWIGEIYHFGTTTYNPSLKSRVTISVDKSKNQFSLKLSSLTAADTAVYYCARTLRDFYYYMDVWGKGTTVTVSS VL: DIHMTQSPSSLSASVGDRVTITCRTSQNINTYLNWYQQRPGRAPKLLIYAASSLQSGVPSRFSGSGSGTDFILSISSLQPEDFATYYCQQSFNIPLTFGGGTKVEIK
stdout: 1.28

stdin: Entry Anti-PILRA antibody clone 5 (antibody, human IgG1, kappa, L234A L235A, V domains shown, also called Ab; Clone 5; Ab.5) VH: QVQLVQSGAEVKKPGASVRVSCKASGYTFIGFYIHWVRQAPGQGLEWMGWINPESGDTTYAQKFQGRVTMTTDTSINTAYMDLNRLRSDDSAVYFCARGNWNFPDTFDFWGQGTMVIVSS VL: DIQMTQSPSSLSASVGDRVTITCRSSQSISIYLNWHQQIPGKAPKLLIYVASSLQSGIPSRFSGRGSGTEFTLTISSLQPEDFATYYCQQSYSAPFTFGPGTKVDIKR needs its EC50 filled in; supply it.
stdout: 32.5
